Entry source: patent US11452758B2

TEST PROTOCOL: Cytotoxicity in normal cell line (MTT)
Type: cell-based, human
CONDITION INFO: human, Hs27 fibroblast cells
Where a SMILES comes first, the peptide text is derived from it.
READOUT TYPE: viability at 24 h, 2 µM (%)
Lab book: enter the figure in %, no units written.

The value of viability at 24 h, 2 µM measured for the compound CC[C@H](C)[C@H](NC(=O)[C@H](CCCNC(=N)N)NC(=O)[C@H](CCC(N)=O)NC(=O)[C@@H](NC(=O)[C@@H](NC(=O)[C@H](CCCNC(=N)N)NC(=O)[C@H](CCCCN)NC(=O)[C@H](Cc1ccccc1)NC(=O)[C@H](CCC(=O)O)NC(=O)[C@@H](N)CCCCN)[C@@H](C)CC)C(C)C)C(=O)N[C@@H](CCCCN)C(=O)N[C@@H](CC(=O)O)C(=O)N[C@@H](Cc1ccccc1)C(=O)N[C@@H](CC(C)C)C(=O)N[C@@H](CCCNC(=N)N)C(=O)N[C@@H](CC(N)=O)C(N)=O [LL37-1, KEFKRIVQRIKDFLRN-NH2] (H-KEFKRIVQRIKDFLRN-NH2) turned out to be 103

----------
TEST PROTOCOL: Cytotoxicity in normal cell line (MTT)
Type: cell-based, human
CONDITION INFO: human, HaCaT keratinocyte cells; HaCaT; peptide 32 μM; 24 hours; MTT; read-out: Cell survival ability
Where a SMILES comes first, the peptide text is derived from it.
READOUT TYPE: viability at 24 h, 32 µM (%)
The response must be a number in % with no trailing unit.

The compound CC[C@H](C)[C@H](NC(=O)[C@H](CCCNC(=N)N)NC(=O)[C@H](CCC(N)=O)NC(=O)[C@@H](NC(=O)[C@@H](NC(=O)[C@H](CCCNC(=N)N)NC(=O)[C@H](CCCCN)NC(=O)[C@H](Cc1ccccc1)NC(=O)[C@H](CCCCN)NC(=O)[C@@H](N)CCCCN)[C@@H](C)CC)C(C)C)C(=O)N[C@@H](CCCCN)C(=O)N[C@@H](CC(=O)O)C(=O)N[C@@H](Cc1ccccc1)C(=O)N[C@@H](CC(C)C)C(=O)N[C@@H](CCCNC(=N)N)C(=O)N[C@@H](CC(N)=O)C(N)=O [LL37-2, KKFKRIVQRIKDFLRN-NH2] (H-KKFKRIVQRIKDFLRN-NH2) showed viability at 24 h, 32 µM equal to 107

----------
TEST PROTOCOL: Cytotoxicity in normal cell line (MTT)
Assay type: cell-based, human
CONDITION INFO: human, Hs27 fibroblast cells
Where a SMILES comes first, the peptide text is derived from it.
READOUT TYPE: viability at 24 h, 0.5 µM (%)
Numeric only. Scale: %

# viability at 24 h, 0.5 µM (compound: CC[C@H](C)[C@H](NC(=O)[C@H](CCCNC(=N)N)NC(=O)[C@H](CCC(N)=O)NC(=O)[C@@H](NC(=O)[C@@H](NC(=O)[C@H](CCCNC(=N)N)NC(=O)[C@H](CCCCN)NC(=O)[C@H](Cc1ccccc1)NC(=O)[C@H](CCC(=O)O)NC(=O)[C@@H](N)CCCCN)[C@@H](C)CC)C(C)C)C(=O)N[C@@H](CCCCN)C(=O)N[C@@H](CC(=O)O)C(=O)N[C@@H](Cc1ccccc1)C(=O)N[C@@H](CC(C)C)C(=O)N[C@@H](CCCNC(=N)N)C(=O)N[C@@H](CC(N)=O)C(N)=O [LL37-1, KEFKRIVQRIKDFLRN-NH2] (H-KEFKRIVQRIKDFLRN-NH2) ) is 100

----------
TEST PROTOCOL: Cytotoxicity in normal cell line (MTT)
Type: cell-based, human
CONDITION INFO: human, HaCaT keratinocyte cells; HaCaT; peptide 16 μM; 24 hours; MTT; read-out: Cell survival ability
Where a SMILES comes first, the peptide text is derived from it.
READOUT TYPE: viability at 24 h, 16 µM (%)
Unit % implied. Number only.

Looking up CC[C@H](C)[C@H](NC(=O)[C@H](CCCNC(=N)N)NC(=O)[C@H](CCC(N)=O)NC(=O)[C@@H](NC(=O)[C@@H](NC(=O)[C@H](CCCNC(=N)N)NC(=O)[C@H](CCCCN)NC(=O)[C@H](Cc1ccccc1)NC(=O)[C@H](CCCCN)NC(=O)[C@@H](N)CCCCN)[C@@H](C)CC)C(C)C)C(=O)N[C@@H](CCCCN)C(=O)N[C@@H](CC(=O)O)C(=O)N[C@@H](Cc1ccccc1)C(=O)N[C@@H](CC(C)C)C(=O)N[C@@H](CCCNC(=N)N)C(=O)N[C@@H](CC(N)=O)C(N)=O [LL37-2, KKFKRIVQRIKDFLRN-NH2] (H-KKFKRIVQRIKDFLRN-NH2) , I found its viability at 24 h, 16 µM recorded as 107

----------
TEST PROTOCOL: Cytotoxicity in normal cell line (MTT)
Assay type: cell-based, human
CONDITION INFO: human, Hs27 fibroblast cells; Hs27; peptide 0.5 μM; 24 hours; MTT; read-out: Cell survival ability
Where a SMILES comes first, the peptide text is derived from it.
READOUT TYPE: viability at 24 h, 0.5 µM (%)
Supply the numeric figure in %, leaving out any unit text.

So, CC[C@H](C)[C@H](NC(=O)[C@H](CCCNC(=N)N)NC(=O)[C@H](CCC(N)=O)NC(=O)[C@@H](NC(=O)[C@@H](NC(=O)[C@H](CCCNC(=N)N)NC(=O)[C@H](CCCCN)NC(=O)[C@H](Cc1ccccc1)NC(=O)[C@H](CCCCN)NC(=O)[C@@H](N)CCCCN)[C@@H](C)CC)C(C)C)C(=O)N[C@@H](CCCCN)C(=O)N[C@@H](CC(=O)O)C(=O)N[C@@H](Cc1ccccc1)C(=O)N[C@@H](CC(C)C)C(=O)N[C@@H](CCCNC(=N)N)C(=O)N[C@@H](CC(N)=O)C(N)=O [LL37-2, KKFKRIVQRIKDFLRN-NH2] (H-KKFKRIVQRIKDFLRN-NH2) ? Its viability at 24 h, 0.5 µM was 92

----------
TEST PROTOCOL: Cytotoxicity in normal cell line (MTT)
Format: cell-based, human
CONDITION INFO: human, Hs27 fibroblast cells; Hs27; peptide 8 μM; 24 hours; MTT; read-out: Cell survival ability
Where a SMILES comes first, the peptide text is derived from it.
READOUT TYPE: viability at 24 h, 8 µM (%)
Express the result in % but write the number alone.

Query CC[C@H](C)[C@H](NC(=O)[C@H](CCCNC(=N)N)NC(=O)[C@H](CCC(N)=O)NC(=O)[C@@H](NC(=O)[C@@H](NC(=O)[C@H](CCCNC(=N)N)NC(=O)[C@H](CCCCN)NC(=O)[C@H](Cc1ccccc1)NC(=O)[C@H](CCCCN)NC(=O)[C@@H](N)CCCCN)[C@@H](C)CC)C(C)C)C(=O)N[C@@H](CCCCN)C(=O)N[C@@H](CC(=O)O)C(=O)N[C@@H](Cc1ccccc1)C(=O)N[C@@H](CC(C)C)C(=O)N[C@@H](CCCNC(=N)N)C(=O)N[C@@H](CC(N)=O)C(N)=O [LL37-2, KKFKRIVQRIKDFLRN-NH2] (H-KKFKRIVQRIKDFLRN-NH2) yields viability at 24 h, 8 µM of 89

----------
TEST PROTOCOL: Cytotoxicity in normal cell line (MTT)
Assay type: cell-based, human
CONDITION INFO: human, HaCaT keratinocyte cells
Where a SMILES comes first, the peptide text is derived from it.
READOUT TYPE: viability at 24 h, 32 µM (%)
Unit % implied. Number only.

viability at 24 h, 32 µM recorded for this compound, CC[C@H](C)[C@H](NC(=O)[C@H](CCCNC(=N)N)NC(=O)[C@H](CCC(N)=O)NC(=O)[C@@H](NC(=O)[C@@H](NC(=O)[C@H](CCCNC(=N)N)NC(=O)[C@H](CCCCN)NC(=O)[C@H](Cc1ccccc1)NC(=O)[C@H](CCC(=O)O)NC(=O)[C@@H](N)CCCCN)[C@@H](C)CC)C(C)C)C(=O)N[C@@H](CCCCN)C(=O)N[C@@H](CC(=O)O)C(=O)N[C@@H](Cc1ccccc1)C(=O)N[C@@H](CC(C)C)C(=O)N[C@@H](CCCNC(=N)N)C(=O)N[C@@H](CC(N)=O)C(N)=O [LL37-1, KEFKRIVQRIKDFLRN-NH2] (H-KEFKRIVQRIKDFLRN-NH2) , is 104

----------
TEST PROTOCOL: Cytotoxicity in normal cell line (MTT)
Type: cell-based, human
CONDITION INFO: human, HaCaT keratinocyte cells; HaCaT; peptide 1 μM; 24 hours; MTT; read-out: Cell survival ability
Where a SMILES comes first, the peptide text is derived from it.
READOUT TYPE: viability at 24 h, 1 µM (%)
Express it in %; write the number only.

Recorded result, CC[C@H](C)[C@H](NC(=O)[C@H](CCCNC(=N)N)NC(=O)[C@H](CCC(N)=O)NC(=O)[C@@H](NC(=O)[C@@H](NC(=O)[C@H](CCCNC(=N)N)NC(=O)[C@H](CCCCN)NC(=O)[C@H](Cc1ccccc1)NC(=O)[C@H](CCCCN)NC(=O)[C@@H](N)CCCCN)[C@@H](C)CC)C(C)C)C(=O)N[C@@H](CCCCN)C(=O)N[C@@H](CC(=O)O)C(=O)N[C@@H](Cc1ccccc1)C(=O)N[C@@H](CC(C)C)C(=O)N[C@@H](CCCNC(=N)N)C(=O)N[C@@H](CC(N)=O)C(N)=O [LL37-2, KKFKRIVQRIKDFLRN-NH2] (H-KKFKRIVQRIKDFLRN-NH2) , viability at 24 h, 1 µM: 106
